# assay-comment: Half-life in cynomolgus monkey at 0.3 mg/kg, iv administered as cassette dose and measured upto 24 hrs by LC-MS/MS analysis
# Format: ADME, organism-based, Macaca fascicularis
# experimental-setup: in vivo
endpoint-label: half-life (h)
I only need the number, in h, no unit after it.

(Q) So what's the measured half-life for this one? CC(C)(O)Cn1cc(-c2nc(NC3CCN(S(=O)(=O)C4CC4)CC3)ncc2C(F)(F)F)cn1
(A) 2.6

----------
endpoint-label: IC50

(Q) Identify the measured IC50 of CC(C)(O)Cn1cc(-c2nc(NC3CCN(S(=O)(=O)C4CC4)CC3)ncc2C(F)(F)F)cn1 for Cytochrome P450 2D6 (Homo sapiens, UniProt P10635).
(A) > 25 µM
